- system tested: hSTING (Homo sapiens, UniProt Q86WV6, G230A/H232R/R293Q/R71H)
- Sequence (Q86WV6 whole entry R71H/G230A/H232R/R293Q): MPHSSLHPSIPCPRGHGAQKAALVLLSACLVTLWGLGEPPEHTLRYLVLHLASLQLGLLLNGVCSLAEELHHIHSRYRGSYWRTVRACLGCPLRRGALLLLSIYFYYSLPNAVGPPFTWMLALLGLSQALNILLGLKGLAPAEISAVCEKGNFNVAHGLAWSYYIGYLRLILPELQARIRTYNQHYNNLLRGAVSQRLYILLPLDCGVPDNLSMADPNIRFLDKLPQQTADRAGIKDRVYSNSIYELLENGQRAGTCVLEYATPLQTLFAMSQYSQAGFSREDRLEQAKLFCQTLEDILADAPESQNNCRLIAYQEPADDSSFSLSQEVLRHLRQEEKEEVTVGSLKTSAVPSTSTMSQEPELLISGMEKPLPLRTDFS
- measurement protocol: STING reporter assay (luciferase) in THP1-Dual KO-IFNAR2 cells stimulated with 2'3'cGAMP
- applied conditions: 2'3'cGAMP 15 μM, 24 h, luciferase reporter activity
property name: EC50

Answered cases to consult:
O=C(Nc1cnc(C2CCC(F)(F)CC2)c(Cl)c1)Nc1c[nH]c2ccc(Cl)cc12 [Compound 157]	40 to 200 nM
CC1(C)OCC(c2ncc(NC(=O)Nc3c[nH]c4ccc(Cl)cc34)cc2Br)CO1 [Compound 294]	40 to 200 nM
O=C(Nc1cnc(N2CCC(F)(F)CC2)c(Cl)c1)Nc1c[nH]c2cc(F)c(F)cc12 [Compound 199]	40 to 200 nM
Cc1cc(NC(=O)Nc2c[nH]c3ccc(Cl)cc23)cnc1C1CCC(F)(F)CC1 [Compound 156]	40 to 200 nM
O=C(Nc1cnn(C2CCC(F)(F)CC2)c1)Nc1c[nH]c2ccc(Cl)cc12 [Compound 209]	200 to 1000 nM

What EC50 appears in the records for this compound with hSTING (Homo sapiens, UniProt Q86WV6, G230A/H232R/R293Q/R71H)? O=C(Nc1cnc(N2CCN(CC(F)(F)F)CC2)c(F)c1)Nc1c[nH]c2cc(F)c(F)cc12 [Compound 251] 40 to 200 nM

What EC50 appears in the records for this compound with hSTING (Homo sapiens, UniProt Q86WV6, G230A/H232R/R293Q/R71H)? O=C(Nc1cnc(N2CCC3(CC2)CC3(F)F)c(Cl)c1)Nc1c[nH]c2ccc(Cl)cc12 [Compound 237] 40 to 200 nM

What EC50 appears in the records for this compound with hSTING (Homo sapiens, UniProt Q86WV6, G230A/H232R/R293Q/R71H)? O=C(Nc1cnc(N2CC3(CN(CC(F)(F)F)C3)C2)c(F)c1)Nc1c[nH]c2ccc(Cl)cc12 [Compound 249] 200 to 1000 nM

What EC50 appears in the records for this compound with hSTING (Homo sapiens, UniProt Q86WV6, G230A/H232R/R293Q/R71H)? C[C@H]1CN(c2ncc(NC(=O)Nc3c[nH]c4ccc(Cl)cc34)cc2Cl)C[C@H](C)O1 [Compound 286] 40 to 200 nM

What EC50 appears in the records for this compound with hSTING (Homo sapiens, UniProt Q86WV6, G230A/H232R/R293Q/R71H)? O=C(Nc1cnc(N2CCC(F)(F)CC2)cn1)Nc1c[nH]c2ccccc12 [Compound 205] 200 to 1000 nM

What EC50 appears in the records for this compound with hSTING (Homo sapiens, UniProt Q86WV6, G230A/H232R/R293Q/R71H)? O=C(Nc1cnc(N2CCC(F)(F)C2)c(Cl)c1)Nc1c[nH]c2ccc(Cl)cc12 [Compound 243] 40 to 200 nM

What EC50 appears in the records for this compound with hSTING (Homo sapiens, UniProt Q86WV6, G230A/H232R/R293Q/R71H)? O=C(Nc1cnc(N2CCC(F)(F)CC2)c(Cl)c1)Nc1c[nH]c2ccc(F)cc12 [Compound 193] 40 to 200 nM

What EC50 appears in the records for this compound with hSTING (Homo sapiens, UniProt Q86WV6, G230A/H232R/R293Q/R71H)? C[C@@H]1CN(c2ncc(NC(=O)Nc3c[nH]c4cc(F)c(F)cc34)cc2Cl)C[C@@H](C)O1 [Compound 142] 40 to 200 nM

What EC50 appears in the records for this compound with hSTING (Homo sapiens, UniProt Q86WV6, G230A/H232R/R293Q/R71H)? N#Cc1cc(NC(=O)Nc2c[nH]c3cc(F)c(F)cc23)cnc1C1CC(F)(F)C1 [Compound 125] 200 to 1000 nM

What EC50 appears in the records for this compound with hSTING (Homo sapiens, UniProt Q86WV6, G230A/H232R/R293Q/R71H)? C[C@@H]1CN(c2ncc(NC(=O)Nc3c[nH]c4ccc(Cl)cc34)cc2Cl)CCN1C(=O)OC(C)(C)C [Compound 284] 40 to 200 nM

What EC50 appears in the records for this compound with hSTING (Homo sapiens, UniProt Q86WV6, G230A/H232R/R293Q/R71H)? O=C(Nc1cnc(N2CCN(CC(F)(F)F)CC2)c(F)c1)Nc1c[nH]c2ccccc12 [Compound 278] 200 to 1000 nM

// provenance: patent US20230127839A1
